- measurement.target: NLRP3 (Homo sapiens (Human), UniProt Q96P20)
- Sequence (Q96P20 whole entry): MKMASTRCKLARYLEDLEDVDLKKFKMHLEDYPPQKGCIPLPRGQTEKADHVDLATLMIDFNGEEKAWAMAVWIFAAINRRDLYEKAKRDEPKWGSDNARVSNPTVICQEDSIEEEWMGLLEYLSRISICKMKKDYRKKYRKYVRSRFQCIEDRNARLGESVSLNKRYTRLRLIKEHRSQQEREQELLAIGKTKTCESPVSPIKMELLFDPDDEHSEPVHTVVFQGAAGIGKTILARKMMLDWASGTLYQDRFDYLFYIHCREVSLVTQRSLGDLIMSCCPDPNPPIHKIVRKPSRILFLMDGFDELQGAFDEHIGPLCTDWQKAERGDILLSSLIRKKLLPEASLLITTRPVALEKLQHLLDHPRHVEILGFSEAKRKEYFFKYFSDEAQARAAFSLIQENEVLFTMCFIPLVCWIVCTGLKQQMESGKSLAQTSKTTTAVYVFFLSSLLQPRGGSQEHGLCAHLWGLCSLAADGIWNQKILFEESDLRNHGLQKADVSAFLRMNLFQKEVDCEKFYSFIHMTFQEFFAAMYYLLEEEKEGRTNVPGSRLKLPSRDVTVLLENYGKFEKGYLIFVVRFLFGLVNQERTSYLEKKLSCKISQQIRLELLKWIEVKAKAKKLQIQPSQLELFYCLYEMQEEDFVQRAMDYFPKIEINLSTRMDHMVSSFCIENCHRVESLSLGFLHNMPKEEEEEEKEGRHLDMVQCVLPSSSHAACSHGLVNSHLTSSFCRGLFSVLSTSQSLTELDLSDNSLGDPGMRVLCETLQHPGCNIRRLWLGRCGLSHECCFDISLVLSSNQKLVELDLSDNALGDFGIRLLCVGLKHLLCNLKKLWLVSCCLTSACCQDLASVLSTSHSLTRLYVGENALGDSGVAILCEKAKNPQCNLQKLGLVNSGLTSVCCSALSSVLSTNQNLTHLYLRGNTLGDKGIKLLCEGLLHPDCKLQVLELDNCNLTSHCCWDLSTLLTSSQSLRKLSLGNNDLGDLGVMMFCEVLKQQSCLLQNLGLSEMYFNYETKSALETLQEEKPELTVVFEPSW
- method: THP-1 cells pyroptosis assay (LPS + nigericin, resazurin read-out)
- Assay type: cell-based
- cond: 1 μg/ml LPS, 5 μM nigericin
pIC50: −log10 of the molar value. Counter-ions that a name gives are not always drawn.
experimental.endpoint: pIC50

Look over these answered cases.
compound	pIC50
CC(O)CN1CC(S(=O)(=O)NC(=O)Nc2c3c(cc4c2CCC4)CCC3)C1 (stereo not shown) [Example 137, potassium salt]	> 6.00
CC(C)c1cc(F)cc(-c2ccnc(C#N)c2)c1NC(=O)NS(=O)(=O)C1CN(Cc2cccnc2)C1	5.00 to 6.00
O=C(Nc1c2c(cc3c1CCC3)CCC2)NS(=O)(=O)C1CN2CCC1CC2 (stereo not shown)	5.00 to 6.00

Here is another compound to look at.
IN: Hi! What's the reported pIC50 for `COc1cc(-c2ccc3c(c2NC(=O)NS(=O)(=O)C2CN(C(C)C)C2)CCC3)ccn1` on NLRP3 (Homo sapiens (Human), UniProt Q96P20)?
OUT: > 6.00
